Biological target: human mitochondrial CIpP (HsCIpP) (Homo sapiens)
Construct: made in house; host or cells: E. coli SG1146 (BL21(DE3) ΔclpP::cat)
Assay: Screen of ADEP analogs against HsCIpP: relative degradation (RD) index, casein-FITC degradation relative to E. coli CIpAP
Assay type: biochemical
Design: key: casein-FITC degradation by HsClpP relative to EcClpAP
Settings: RD value at 1 μM of the ADEP analog
From the text: Structural analogs of acyldepsipeptide (ADEP) (Goodreid et al., 2016) that were previously developed as potential antibiotics against bacterial CIpP were screened and assessed for their ability to activate and dysregulate the protease activity of HsCIpP, by measuring their relative degradation (RD) index. […] Δφ is the change in fluorescence after 6 hr of starting the reaction measured using 485 nm excitation and 535 nm emission, which primarily detects the signal from casein-FITC. […]
Where a SMILES comes first, the peptide text is derived from it. Bridges are numbered along the chain shown (N, C = ends). [ ]: non-standard residue; d: D form. The star is where a group is joined. Phe(3,5-F2) = N[C@@H](Cc1cc(F)cc(F)c1)C(=O)O; Pip(4S-Me) = C[C@H]1CCN[C@H](C(=O)O)C1; Pro(4R-Me) = C[C@H]1CN[C@H](C(=O)O)C1; Tiq1c(1S) = O=C(O)[C@H]1NCCc2ccccc21; Heptenoyl(2E) = CCCC/C=C/C(=O)*
Recorded measurements of Hs RD1, one per entry

The following molecules have reported results that may help.
CCCC/C=C/C(=O)N[C@@H](Cc1cc(F)cc(F)c1)C(=O)N[C@H]1COC(=O)[C@@H]2C[C@@H](C)CN2C(=O)[C@H](C)NC(=O)[C@@H]2c3ccccc3CCN2C(=O)[C@@H]2CCCN2C1=O [ADEP-37] ({Heptenoyl(2E)}-[Phe(3,5-F2)]SP[Tiq1c(1S)]A[Pro(4R-Me)]; ester 2-C) :: 0.68
CCCC/C=C/C(=O)N[C@@H](Cc1cc(F)cc(F)c1)C(=O)N[C@H]1COC(=O)[C@@H]2C[C@@H](C)CN2C(=O)[C@H](C)NC(=O)[C@@H]2C[C@@H](C)CCN2C(=O)[C@@H]2CCCN2C1=O [ADEP-30] ({Heptenoyl(2E)}-[Phe(3,5-F2)]SP[Pip(4S-Me)]A[Pro(4R-Me)]; ester 2-C) :: 0.69
CCCC/C=C/C(=O)N[C@H](Cc1ccccc1)C(=O)N[C@H]1COC(=O)[C@@H]2CCCN2C(=O)[C@H](C)NC(=O)[C@@H]2CCCCN2C(=O)[C@@H]2CCCN2C1=O :: 0.52

Let us examine a further case.
Q: Name the recorded Hs RD1 for CCCC/C=C/C(=O)N[C@@H](Cc1ccccc1)C(=O)N[C@H]1COC(=O)[C@@H]2C[C@@H](C)CN2C(=O)[C@H](C)NC(=O)[C@@H]2CCCCN2C(=O)[C@@H]2CCCN2C1=O .
Result: 0.44

###

biological target: human mitochondrial CIpP (HsCIpP) (Homo sapiens); construct: made in house; host or cells: E. coli SG1146 (BL21(DE3) ΔclpP::cat); assay: Screen of ADEP analogs against HsCIpP: relative degradation (RD) index, casein-FITC degradation relative to E. coli CIpAP; assay type: biochemical; set-up: key: casein-FITC degradation by HsClpP relative to EcClpAP; conditions: RD value at 1 μM of the ADEP analog
Where a SMILES comes first, the peptide text is derived from it. Bridges are numbered along the chain shown (N, C = ends). [ ]: non-standard residue; d: D form. The star is where a group is joined. Phe(3,5-F2) = N[C@@H](Cc1cc(F)cc(F)c1)C(=O)O; Pip(4S-Me) = C[C@H]1CCN[C@H](C(=O)O)C1; Pro(4R-Me) = C[C@H]1CN[C@H](C(=O)O)C1; Heptenoyl(2E) = CCCC/C=C/C(=O)*; aThr = C[C@H](O)[C@H](N)C(=O)O; Pip = O=C(O)[C@@H]1CCCCN1; X2 = O=C(/C=C/CC1CCCCC1)*; NMeA = CN[C@@H](C)C(=O)O
recordedMetric: Hs RD1
No unit in the answer, please; the number alone is enough.

CCCC/C=C/C(=O)N[C@@H](Cc1ccccc1)C(=O)N[C@H]1COC(=O)[C@@H]2CCCN2C(=O)[C@H](C)NC(=O)[C@H](C)N(C)C(=O)[C@@H]2CCCN2C1=O [ADEP-01] ({Heptenoyl(2E)}-FSP[NMeA]AP; ester 2-C) :: 0.22
CCCC/C=C/C(=O)N[C@@H](Cc1cc(F)cc(F)c1)C(=O)N[C@@H]1C(=O)N2CCC[C@H]2C(=O)N2CCCC[C@H]2C(=O)N[C@@H](C)C(=O)N2C[C@H](C)C[C@H]2C(=O)O[C@H]1C [ADEP-29] ({Heptenoyl(2E)}-[Phe(3,5-F2)][aThr]P[Pip]A[Pro(4R-Me)]; ester 2-C) :: 0.76
CCCC/C=C/C(=O)N[C@@H](Cc1cc(F)cc(F)c1)C(=O)N[C@@H]1C(=O)N2CCC[C@H]2C(=O)N2CC[C@H](C)C[C@H]2C(=O)N[C@@H](C)C(=O)N2C[C@H](C)C[C@H]2C(=O)O[C@H]1C [ADEP-38] ({Heptenoyl(2E)}-[Phe(3,5-F2)][aThr]P[Pip(4S-Me)]A[Pro(4R-Me)]; ester 2-C) :: 0.76
CCCC/C=C/C(=O)N[C@@H](Cc1cc(F)cc(F)c1)C(=O)N[C@H]1COC(=O)[C@@H]2C[C@@H](C)CN2C(=O)[C@H](C)NC(=O)[C@H](C)N(C)C(=O)[C@@H]2CCCN2C1=O [ADEP-06] ({Heptenoyl(2E)}-[Phe(3,5-F2)]SP[NMeA]A[Pro(4R-Me)]; ester 2-C) :: 0.64

Kindly review the next compound as well.
Q: Quick one: Hs RD1 for C[C@@H]1C[C@H]2C(=O)O[C@@H](C)[C@H](NC(=O)[C@H](Cc3cc(F)cc(F)c3)NC(=O)/C=C/CC3CCCCC3)C(=O)N3CCC[C@H]3C(=O)N3CCCC[C@H]3C(=O)N[C@@H](C)C(=O)N2C1 [ADEP-17] (X2-[Phe(3,5-F2)][aThr]P[Pip]A[Pro(4R-Me)]; ester 2-C) ?
Result: 0.86

###

Catalogue of compounds with associated Hs RD5
target: human mitochondrial CIpP (HsCIpP) (Homo sapiens, UniProt Q16740); construct: made in house; host or cells: E. coli SG1146 (BL21(DE3) ΔclpP::cat); assay: Screen of ADEP analogs against HsCIpP: relative degradation (RD) index, casein-FITC degradation relative to E. coli CIpAP; assay type: biochemical; set-up: key: casein-FITC degradation by HsClpP relative to EcClpAP; conditions: RD value at 5 μM of the ADEP analog
Sequence (Q16740 57-277): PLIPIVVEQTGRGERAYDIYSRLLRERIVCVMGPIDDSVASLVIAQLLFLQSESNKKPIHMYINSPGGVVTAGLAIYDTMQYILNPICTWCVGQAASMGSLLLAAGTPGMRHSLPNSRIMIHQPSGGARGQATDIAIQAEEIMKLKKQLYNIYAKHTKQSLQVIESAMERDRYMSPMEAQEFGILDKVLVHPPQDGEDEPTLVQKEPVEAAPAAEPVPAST
Where a SMILES comes first, the peptide text is derived from it. Bridges are numbered along the chain shown (N, C = ends). [ ]: non-standard residue; d: D form. The star is where a group is joined. Octatrienoyl(2E,4E,6E) = C/C=C/C=C/C=C/C(=O)*; Phe(3,5-F2) = N[C@@H](Cc1cc(F)cc(F)c1)C(=O)O; Pro(4R-Me) = C[C@H]1CN[C@H](C(=O)O)C1; Heptenoyl(2E) = CCCC/C=C/C(=O)*; aThr = C[C@H](O)[C@H](N)C(=O)O; Pip = O=C(O)[C@@H]1CCCCN1; NMeA = CN[C@@H](C)C(=O)O
No unit in the answer, please; the number alone is enough.

Look over these answered cases.
CCCC/C=C/C(=O)N[C@@H](Cc1cc(F)cc(F)c1)C(=O)N[C@@H]1C(=O)N2CCC[C@H]2C(=O)N2CCCC[C@H]2C(=O)N[C@@H](C)C(=O)N2CCC[C@H]2C(=O)O[C@H]1C [ADEP-41] ({Heptenoyl(2E)}-[Phe(3,5-F2)][aThr]P[Pip]AP; ester 2-C) :: 0.93
CCCC/C=C/C(=O)N[C@@H](Cc1cc(F)cc(F)c1)C(=O)N[C@H]1COC(=O)[C@@H]2C[C@@H](C)CN2C(=O)[C@H](C)NC(=O)[C@H](C)N(C)C(=O)[C@@H]2CCCN2C1=O [ADEP-06] ({Heptenoyl(2E)}-[Phe(3,5-F2)]SP[NMeA]A[Pro(4R-Me)]; ester 2-C) :: 0.94
CCCC/C=C/C(=O)N[C@@H](Cc1cc(F)cc(F)c1)C(=O)N[C@H]1COC(=O)[C@@H]2C[C@@H](C)CN2C(=O)[C@H](C)NC(=O)[C@@H]2CCCN2C(=O)[C@@H]2CCCN2C1=O :: 0.92

Q: Could you tell me which Hs RD5 is on file for C/C=C/C=C/C=C/C(=O)N[C@@H](Cc1ccccc1)C(=O)N[C@H]1COC(=O)[C@@H]2C[C@@H](C)CN2C(=O)[C@H](C)NC(=O)[C@H](C)N(C)C(=O)[C@@H]2CCCN2C1=O [ADEP-05] ({Octatrienoyl(2E,4E,6E)}-FSP[NMeA]A[Pro(4R-Me)]; ester 2-C) ?
Result: 0.69
